target: human mGlu5a receptor (Homo sapiens (Human), UniProt P41594); test: Intracellular Ca2+ mobilization assay (mGlu5 PAM assay); format: cell-based; details: PAM = positive, NAM = negative allosteric modulator of mGlu5
Sequence (P41594 other isoform, or with tags, fused parts or gaps): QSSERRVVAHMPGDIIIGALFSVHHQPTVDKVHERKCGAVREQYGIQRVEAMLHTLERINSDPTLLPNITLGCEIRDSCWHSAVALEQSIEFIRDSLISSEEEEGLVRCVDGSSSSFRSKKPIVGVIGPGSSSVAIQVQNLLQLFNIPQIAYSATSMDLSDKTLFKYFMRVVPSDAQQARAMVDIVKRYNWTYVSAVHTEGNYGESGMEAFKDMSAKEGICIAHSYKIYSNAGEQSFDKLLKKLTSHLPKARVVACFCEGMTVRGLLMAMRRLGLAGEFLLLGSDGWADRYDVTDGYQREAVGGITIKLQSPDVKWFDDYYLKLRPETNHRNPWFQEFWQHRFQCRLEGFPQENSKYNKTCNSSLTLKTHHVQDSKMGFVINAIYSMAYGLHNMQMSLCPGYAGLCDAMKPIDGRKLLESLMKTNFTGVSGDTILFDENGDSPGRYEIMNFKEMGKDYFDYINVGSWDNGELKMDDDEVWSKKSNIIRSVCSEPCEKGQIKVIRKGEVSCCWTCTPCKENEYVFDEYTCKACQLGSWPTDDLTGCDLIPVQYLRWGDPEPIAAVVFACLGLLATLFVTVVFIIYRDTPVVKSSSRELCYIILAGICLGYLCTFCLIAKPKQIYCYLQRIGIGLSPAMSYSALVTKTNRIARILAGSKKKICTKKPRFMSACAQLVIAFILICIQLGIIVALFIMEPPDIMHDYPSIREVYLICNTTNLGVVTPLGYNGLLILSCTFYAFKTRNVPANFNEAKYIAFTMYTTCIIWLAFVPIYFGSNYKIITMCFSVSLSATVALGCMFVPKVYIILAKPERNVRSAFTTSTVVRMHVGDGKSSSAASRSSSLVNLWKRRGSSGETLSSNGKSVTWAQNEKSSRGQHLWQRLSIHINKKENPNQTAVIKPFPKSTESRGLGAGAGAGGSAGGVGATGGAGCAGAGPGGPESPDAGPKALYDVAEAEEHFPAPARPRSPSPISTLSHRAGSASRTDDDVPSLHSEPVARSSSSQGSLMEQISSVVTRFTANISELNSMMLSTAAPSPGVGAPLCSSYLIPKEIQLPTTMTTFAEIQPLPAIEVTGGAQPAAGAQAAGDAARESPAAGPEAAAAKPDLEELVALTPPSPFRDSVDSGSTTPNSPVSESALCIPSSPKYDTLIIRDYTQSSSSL
result type: Activity profile

Example entries begin here.
{"columns": ["molecule", "Activity profile"],
 "data": [
  ["CCN(C(=O)c1ccc(C#Cc2cccc(F)c2)cn1)C(C)(C)C", "NAM"],
  ["CCN(C(=O)c1ncc(C#Cc2cccc(Cl)c2)cn1)C(C)(C)C", "NAM"],
  ["CCN(C(=O)c1ncc(C#Cc2cccc(F)c2)cn1)C(C)(C)C", "NAM"],
  ["CN(C(=O)c1ccc(C#Cc2cccc(F)c2)cn1)C(C)(C)C [Reference compound 1, reference compound]", "PAM"]
]}

Consider the molecule shown here: CN(C(=O)c1ncc(C#Cc2cccc(F)c2)cn1)C(C)(C)C [Reference compound 2, reference compound] What is its recorded Activity profile?
PAM

Consider the molecule shown here: `CCN(C(=O)c1ccc(C#Cc2cccc(Cl)c2)cn1)C(C)(C)C` What is its recorded Activity profile?
NAM
